target: Jak2 (UniProt O60674); assay: phosphorylation enrichment, bacterial display (enrichment ratio); higher = better substrate or ligand; peptides without Tyr show the background;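 note: 11-residue human phosphosite peptides and single-mutation variants displayed on the E. coli surface, counted by deep sequencing, each peptide's frequency after selection divided by its frequency in the unselected input library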;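 note: frequency after pTyr selection over input frequency; kinase dosed for 20-30% of maximal phosphorylation in three min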
Sequence (O60674 whole entry, looked up): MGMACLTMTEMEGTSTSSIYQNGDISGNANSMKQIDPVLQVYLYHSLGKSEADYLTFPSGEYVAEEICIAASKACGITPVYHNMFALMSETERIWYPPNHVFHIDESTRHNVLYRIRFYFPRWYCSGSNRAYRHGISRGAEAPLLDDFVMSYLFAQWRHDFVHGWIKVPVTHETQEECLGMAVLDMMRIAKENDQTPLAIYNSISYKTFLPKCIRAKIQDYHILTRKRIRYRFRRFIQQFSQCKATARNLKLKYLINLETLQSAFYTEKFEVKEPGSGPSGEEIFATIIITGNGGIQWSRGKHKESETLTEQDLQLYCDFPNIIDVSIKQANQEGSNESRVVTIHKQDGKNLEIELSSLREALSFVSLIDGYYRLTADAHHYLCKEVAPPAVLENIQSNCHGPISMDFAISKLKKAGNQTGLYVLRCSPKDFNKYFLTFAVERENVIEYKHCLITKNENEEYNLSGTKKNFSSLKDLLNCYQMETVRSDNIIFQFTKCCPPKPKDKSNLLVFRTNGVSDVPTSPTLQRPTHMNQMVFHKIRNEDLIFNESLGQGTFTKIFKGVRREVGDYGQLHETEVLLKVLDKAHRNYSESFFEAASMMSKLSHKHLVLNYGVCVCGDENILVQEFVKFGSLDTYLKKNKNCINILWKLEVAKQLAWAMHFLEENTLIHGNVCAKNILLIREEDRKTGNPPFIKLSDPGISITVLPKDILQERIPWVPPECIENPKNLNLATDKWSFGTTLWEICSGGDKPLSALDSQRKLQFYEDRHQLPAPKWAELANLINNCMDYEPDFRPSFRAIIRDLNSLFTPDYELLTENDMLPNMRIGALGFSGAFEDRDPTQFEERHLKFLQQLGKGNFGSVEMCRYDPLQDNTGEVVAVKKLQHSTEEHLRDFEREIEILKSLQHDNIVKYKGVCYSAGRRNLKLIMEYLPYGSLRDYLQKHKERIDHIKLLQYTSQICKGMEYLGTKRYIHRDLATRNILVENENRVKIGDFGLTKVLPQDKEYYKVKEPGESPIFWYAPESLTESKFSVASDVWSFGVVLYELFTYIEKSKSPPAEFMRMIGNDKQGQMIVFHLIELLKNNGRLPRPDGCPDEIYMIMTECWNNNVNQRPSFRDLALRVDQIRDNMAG
parameter measured: phosphorylation enrichment
One number for each entry.

Dear colleague, could you please provide phosphorylation enrichment for the sequences listed below?
1. TEAEPYYCSLR [NPHS1_Y1138_R1140C]
2. RIFDFYSARKA [STOX1_Y858_YF]
3. KTDVHYRSLGG [DYSF_Y1858]
4. QPAGNYSLSSV [ARFGAP3_Y473]
5. LGSWTYTKTVS [ROS1_Y144]
6. LQLLGYRPVFS [CHST6_Y358_YF]
7. LEDEVCAQKMK [TPM2_Y261_Y261C]

Response given:
1.4
0.729
0.48
0.874
1.61
1.15
1.44
